# Protocol Text: modulators of LAP4-GFP expression in yeast, primary screen, S. cerevisiae, multiplex flow cytometry (AID 1873)
# Protocol Conditions: 3 h, at 10 µM, active compounds read high
Inconclusive results are not listed. Activity calls are given as the source filed them.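 Rule for the calls: active = GFP signal, as percent of the solvent control, above the screen mean plus 3 SD, about 149; inconclusive = no reading because the compound's own fluorescence upset strain identification; inactive = the rest.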
Value Kind: GFP response vs DMSO

Past entries and their recorded results:
Entry Cc1cccc(N(C)C(=S)Oc2ccc3ccccc3c2)c1 : reported GFP response vs DMSO = ? 78.7% (inactive)

Entry CCN(CC)C1=C(Cl)C(=O)C(Cl)C12OCCO2 (configuration not stated) : reported GFP response vs DMSO = ? 100% (inactive)

Entry Cc1ccc(S(=O)(=O)Nc2ccc(S(=O)(=O)Nc3cc(C)nc(C)n3)cc2)cc1 : reported GFP response vs DMSO = ? 78.1% (inactive)

Entry Nc1c2c(nc3ccccc13)CCCC2 : reported GFP response vs DMSO = ? 69.9% (inactive)

Entry COC(=O)c1cc(=O)c2ccc(OC)cc2o1 : reported GFP response vs DMSO = ? 100% (inactive)

Entry COc1cc(OC)cc(C(=O)N[C@@H](CCSC)c2nc3ccccc3[nH]2)c1 : reported GFP response vs DMSO = ? 91.3% (inactive)

More entries:
Entry COc1ccc(C2NC(=O)c3ccccc3N2)cc1OC (configuration not stated) : reported GFP response vs DMSO = ? 94.3% (inactive)

Entry CC(=O)NC1C(OCCOc2ccc(Cl)cc2Cl)OC(COC(C)=O)C(OC(C)=O)C1OC(C)=O (configuration not stated) : reported GFP response vs DMSO = ? 91.3% (inactive)

Entry O=C(CCCN1CC=C(n2c(=O)[nH]c3ccccc32)CC1)c1ccc(F)cc1 : reported GFP response vs DMSO = ? 93.3% (inactive)
